Where these numbers come from: ChEMBL document CHEMBL1153652

system: HCT-116; assay: Inhibitory concentration was determined for cytotoxicity in HCT116 human colon cancer cell line; type: functional, cell-based
MEASURED METRIC: IC50
Your reply should be a number followed by the unit it is expressed in.

Task item: Need IC50 of O=C1C2=CCCC1(O)C#CC1=C(C#C[C@H]2O)CCC1 (stereo partly specified) , thanks.
Reply: 2200 nM
